study_system: human mGlu5a receptor (Homo sapiens, UniProt P41594)
Construct: expressed in transfected cells
Sequence (P41594 21-1180 isoform P41594-2 limits assumed): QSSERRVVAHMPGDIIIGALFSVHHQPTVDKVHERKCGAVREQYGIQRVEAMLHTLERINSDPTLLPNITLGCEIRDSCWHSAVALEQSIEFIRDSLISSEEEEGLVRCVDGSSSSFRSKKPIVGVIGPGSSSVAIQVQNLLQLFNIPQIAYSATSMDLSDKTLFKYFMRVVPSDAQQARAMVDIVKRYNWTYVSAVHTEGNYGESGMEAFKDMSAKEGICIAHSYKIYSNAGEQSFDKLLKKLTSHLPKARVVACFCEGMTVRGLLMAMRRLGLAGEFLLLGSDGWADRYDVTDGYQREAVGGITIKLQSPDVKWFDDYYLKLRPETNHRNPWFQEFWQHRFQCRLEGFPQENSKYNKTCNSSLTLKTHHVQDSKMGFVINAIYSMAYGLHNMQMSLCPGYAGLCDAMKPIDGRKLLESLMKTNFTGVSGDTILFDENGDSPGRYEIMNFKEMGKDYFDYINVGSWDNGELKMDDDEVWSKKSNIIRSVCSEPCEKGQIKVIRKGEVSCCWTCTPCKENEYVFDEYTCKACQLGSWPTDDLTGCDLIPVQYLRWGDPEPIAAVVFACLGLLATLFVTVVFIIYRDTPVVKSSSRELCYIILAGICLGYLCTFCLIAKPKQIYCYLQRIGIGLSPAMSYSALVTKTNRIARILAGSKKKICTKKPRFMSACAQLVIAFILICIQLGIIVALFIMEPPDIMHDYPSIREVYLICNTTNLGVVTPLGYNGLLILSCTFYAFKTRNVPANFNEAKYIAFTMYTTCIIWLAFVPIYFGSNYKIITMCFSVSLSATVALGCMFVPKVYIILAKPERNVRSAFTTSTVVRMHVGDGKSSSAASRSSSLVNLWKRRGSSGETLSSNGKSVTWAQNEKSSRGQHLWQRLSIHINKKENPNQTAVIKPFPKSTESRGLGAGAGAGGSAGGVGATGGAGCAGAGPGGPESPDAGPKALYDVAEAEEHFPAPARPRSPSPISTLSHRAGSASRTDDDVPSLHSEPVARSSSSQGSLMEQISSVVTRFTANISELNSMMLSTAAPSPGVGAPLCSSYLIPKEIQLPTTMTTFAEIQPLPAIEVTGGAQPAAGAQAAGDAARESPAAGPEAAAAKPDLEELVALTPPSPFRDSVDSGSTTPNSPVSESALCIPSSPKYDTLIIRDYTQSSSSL
test_protocol: Intracellular Ca2+ mobilization assay (mGlu5 PAM)
Format: cell-based
measurement_parameters: HEK-293 cells stably transfected with human mGlu5a receptor; L-glutamate added at EC20 (typically around 80 μM) after 10-30 min pre-incubation with test compound; read-out: EC50 (nM) mGlu5PAM
# if measured EC50 < 30 nM: YES  # else: NO

q: Regarding CC(NC(=O)c1ccc(C#Cc2cccc(Cl)c2)cn1)C(F)(F)F (racemic) , kindly confirm whether its EC50 is beneath 30 nM.
a: NO

q: Dear reviewer, please state whether CN(C(=O)c1ncc(C#Cc2cccc(F)c2)cc1F)C(C)(C)C has EC50 strictly beneath 30 nM.
a: YES

q: Would you kindly verify if EC50 of CN(C(=O)c1ccc(C#Cc2cccc(Cl)c2)cn1)C(C)(C)C(F)(F)F is strictly less than 30 nM?
a: YES

q: Threshold test, EC50 < 30 nM: CC1(C)CC(O)CCN1C(=O)c1ncc(C#Cc2cc(F)ccc2F)cn1 (racemic)
a: NO

q: Dear colleague, could you confirm whether EC50 of CN(C(=O)c1ccc(C#Cc2cccc(F)c2)cn1)C(C)(C)C falls below 30 nM? Thanks.
a: YES

q: In plain terms, does CC(NC(=O)c1ccc(C#Cc2ccnc(Cl)c2)cn1)C(F)(F)F (racemic) [Example 57] come in under 30 nM for EC50?
a: YES

q: Consider the compound CN(C(=O)c1ccc(C#Cc2ccc(F)cc2)cn1)C1(C)COC1 . Is its EC50 strictly less than 30 nM?
a: NO

q: Identify whether the compound CN(C(=O)c1ccc(C#Cc2cncc(F)c2)cn1)C(C)(C)C records EC50 below 30 nM.
a: NO

q: Bench note: check whether CN(C(=O)c1ccc(C#Cc2ccc(F)c(F)c2)cn1)C1(C)COC1 shows EC50 below 30 nM
a: NO

q: Quick check: EC50 of CN(C(=O)c1ccc(C#Cc2cccc(F)c2)cn1)C1CCC1 under 30 nM?
a: NO

q: Please let me know if Cc1cc(C#Cc2ccc(F)cc2)cnc1C(=O)N(C)C(C)(C)C shows EC50 below 30 nM.
a: NO

q: Is EC50 strictly under 30 nM for the entry CC1(O)CCN(C(=O)c2ccc(C#Cc3cccc(F)c3)cn2)CC1 ?
a: NO

q: Dear colleague, could you confirm whether EC50 of CC(N(C)C(=O)c1ncc(C#Cc2ccccc2)cc1F)C(F)(F)F (racemic) falls below 30 nM? Thanks.
a: NO

q: I wonder whether CC1(C)CC(O)CCN1C(=O)c1ncc(C#Cc2ccccc2)cn1 (racemic) has EC50 below 30 nM. Can you tell?
a: NO

q: # strict comparison: is reported EC50 < 30 nM? input = Cc1cc(C#Cc2cc(F)ccc2F)cnc1C(=O)N(C)C(C)(C)C
a: NO

q: Criterion: EC50 strictly below 30 nM. Is it met by CC1(C)CN(C(=O)c2ccc(C#Cc3ccccc3)cn2)CCC1O (racemic) ?
a: NO

q: Is the reported EC50 for CC1(C)CC(O)CCN1C(=O)c1ccc(C#Cc2ccccc2)cn1 (racemic) strictly below 30 nM?
a: YES

q: Answer whether the compound CN(C(=O)c1ncc(C#Cc2cccc(F)c2)cc1F)C1(C)CC1 has EC50 strictly less than 30 nM
a: NO
